# study target: TNKS2 ARC4 (Homo sapiens, UniProt Q9H2K2)
# Construct: GST (cleaved yes); made in house; host or cells: E. coli C41(DE3)
# measurement description: Direct fluorescence polarization, TNKS2 ARC4
# Assay type: binding
# test parameters: TAMRA-labeled peptides; n.d. = not detectable; read-out: Kd TNKS2 ARC4 (Direct FP)
Property: pKd; scope: individual compounds
Bear in mind: pKd is minus log10 of a mol/L concentration; give just that figure.

Asked: Notebook: pull reported pKd for TNKS2 ARC4 (Homo sapiens, UniProt Q9H2K2), entry "CN(C)c1ccc2c(c1)Oc1cc(N(C)C)ccc1C21OC(=O)c2cc(C(=O)NCCCCCC(=O)N[C@@H](CCCNC(=N)N)C(=O)N[C@@H](CCC(=O)O)C(=O)N[C@H]3CCn4cc(nn4)CCCc4cn(nn4)CCC[C@@H](C(=O)N[C@@H](CCC(=O)O)C(N)=O)NC(=O)CNC(=O)[C@H](CC(=O)O)NC(=O)CNC3=O)ccc21"
Given back: 5.96

---
Asked: Notebook: pull reported pKd for TNKS2 ARC4 (Homo sapiens, UniProt Q9H2K2), entry "CN(C)c1ccc2c(c1)Oc1cc(N(C)C)ccc1C21OC(=O)c2cc(C(=O)NCCCCCC(=O)N[C@@H](CCCNC(=N)N)C(=O)N[C@@H](CCC(=O)O)C(=O)N[C@H]3CCCn4cc(nn4)CCCc4cn(nn4)CCC[C@@H](C(=O)N[C@@H](CCC(=O)O)C(N)=O)NC(=O)CNC(=O)[C@H](CC(=O)O)NC(=O)CNC3=O)ccc21"
Given back: 5.59

Asked: Notebook: pull reported pKd for TNKS2 ARC4 (Homo sapiens, UniProt Q9H2K2), entry "CN(C)c1ccc2c(c1)Oc1cc(N(C)C)ccc1C21OC(=O)c2cc(C(=O)NCCCCCC(=O)N[C@@H](CCCNC(=N)N)C(=O)N[C@@H](CCC(=O)O)C(=O)N[C@H]3CCn4cc(nn4)CN(CC(=O)O)Cc4cn(nn4)CC[C@@H](C(=O)N[C@@H](CCC(=O)O)C(N)=O)NC(=O)CNC(=O)[C@H](CC(=O)O)NC(=O)CNC3=O)ccc21"
Given back: 5.92
